Hey, just so you know, these numbers are from patent US20240132589A1.

# System: T1, Human LILRB5 on transiently transfected HEK293-6E cells (human, UniProt O75023 24-590)
# T1 construct: whole, on cells; also called hLILRB5
# T1 sequence (O75023 24-590): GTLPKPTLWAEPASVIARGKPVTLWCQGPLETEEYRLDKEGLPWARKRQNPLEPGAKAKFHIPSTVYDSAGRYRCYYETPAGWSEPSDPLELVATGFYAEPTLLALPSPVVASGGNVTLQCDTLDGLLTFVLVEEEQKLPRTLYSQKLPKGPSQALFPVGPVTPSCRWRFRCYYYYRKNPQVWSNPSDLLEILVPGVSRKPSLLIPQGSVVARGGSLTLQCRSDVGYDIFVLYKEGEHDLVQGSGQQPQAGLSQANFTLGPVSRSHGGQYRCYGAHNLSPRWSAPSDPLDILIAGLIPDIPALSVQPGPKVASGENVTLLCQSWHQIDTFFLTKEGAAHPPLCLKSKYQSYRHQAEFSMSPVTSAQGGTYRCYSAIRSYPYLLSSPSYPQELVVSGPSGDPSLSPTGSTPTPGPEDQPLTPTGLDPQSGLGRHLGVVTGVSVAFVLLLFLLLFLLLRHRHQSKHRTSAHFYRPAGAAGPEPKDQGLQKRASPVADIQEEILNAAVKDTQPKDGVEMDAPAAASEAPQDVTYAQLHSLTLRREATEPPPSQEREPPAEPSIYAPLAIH
# Test Summary: flow cytometry, transiently transfected HEK293-6E cells
# Procedure: To determine that the anti-LILRB2 antibodies specifically bind to LILRB2 and not other LILRB and LILRA family members, a cross-reactivity assay was performed. Cross-reactivity of the LILRB2 antibodies to other LILRB proteins was assessed by antibody binding to transiently transfected HEK293-6E cells, measured by flow cytometry. […]
Assay Metric: Bmax (MFI)
Report only the number, with the unit MFI understood.

Some entries whose results are on file:
B2H1-11 (antibody, V domains shown, Humanized variant, human IgG1 / kappa) VH: QVQLEESGGRVVQPGRSLRLSCAASGFSLSTYAMSWVRQAPGKGLEWIGWIYNDGSTYYAAWAKGRFTISKDTSKTTVFLQMNSLKPDDTATYFCAREGDYIGYFNIWGQGTLVTVSS VL: DIQMTQSPSSLSASVGDRVTITCQASQSIGSNLAWYQLKPGQRPKLLIYAAATLASGVPSRFKGSGSGTDFTLTISSLQSEDAATYYCQSYVSGSSDVAFGGGTEVVVK; 147
B2H1-35 (antibody, V domains shown, Humanized variant, human IgG1 / kappa) VH: QVQLVESGGRVVQPGTPLRLSCAASGFSLSTYAMSWVRQAPGKGLEWVAWIYNDGSTYYAAWAKGRFTISRDTSKNTLYLQTNSLKPDDTAVYYCAREGDYIGYFNIWGQGTLVTVSS VL: DVVMTQTPSSVSAALGGTVTIKCQASQSIGSNLAWYQLKPGQRPKLLIYAAATLASGGSSRFKGSGSGTDFTLTISSLEPADAATYYCQSYVSGSSDVAFGGGTEVVVK; 145

Data request: Which Bmax (MFI) value belongs to B2H1-52 (antibody, V domains shown, Humanized variant, human IgG1 / kappa) VH: EVQLLESGGGLVQPGTSLTLSCAASGFSLSTYAMSWVRQAPGKGLEWIGWIYNDGSTYYAAWAKGRFTISKDTSKTTLYLQITSLRAEDTATYFCAREGDYIGYFNIWGQGTLVTVSS VL: DVVMTQSPSSVSASLGDRVTITCQASQSIGSNLAWYQQKPGQAPKLLIYAAATLASGVPSRFKGSGSGTDFTLTITSLQPADFATYYCQSYVSGSSDVAFGGGTKVEIK ?
Data returned: 153

Data request: Further, for B2H1-55 (antibody, V domains shown, Humanized variant, human IgG1 / kappa; also called humanized variant B2H1-55; humanized LILRB2 antibody B2H1-55) VH: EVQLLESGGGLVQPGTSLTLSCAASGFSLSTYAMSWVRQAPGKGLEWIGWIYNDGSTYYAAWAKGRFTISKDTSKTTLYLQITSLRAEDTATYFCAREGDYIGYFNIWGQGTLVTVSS VL: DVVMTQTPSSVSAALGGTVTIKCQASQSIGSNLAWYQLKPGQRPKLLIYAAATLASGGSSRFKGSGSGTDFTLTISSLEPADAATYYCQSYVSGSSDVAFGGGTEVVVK ?
Data returned: 138
